experiment: Oral bioavailability in Beagle dog at 1 to 2 mg/kg administered via gavage by LC-MS/MS analysis; format: ADME, organism-based, Canis lupus familiaris; details: in vivo
endpointName: bioavailability (%)
Give bare numbers, in %.

Requested field: bioavailability. Item: "CCCCc1cc(OC2CCN(CCCCNS(=O)(=O)CC)CC2)c2ncccc2c1.Cl.Cl"
5

====

test: Volume of distribution at steady state in CD Sprague-Dawley rat at 1 mg/kg, iv or 3 mg/kg, po by LC-MS/MS analysis; format: ADME, organism-based; settings: in vivo, read-out: Vdss
endpointName: Vd

State the recorded Vd for this entry: "CCCCc1cc(OC2CCN(CCCCNS(=O)(=O)CC)CC2)c2ncccc2c1.Cl.Cl"
4.2 L/kg

====

test: Blood clearance in Beagle dog at 0.5 mg/kg, iv administered via bolus dose or 1 mg/kg, po administered via gavage by LC-MS/MS analysis; assay type: ADME, organism-based, Canis lupus familiaris
endpointName: clearance (mL/min/kg)
Answers are plain numbers, in mL/min/kg.

Requested read-out: clearance. Entry: "CCCCc1cc(OC2CCN(CCCCNS(=O)(=O)CC)CC2)c2ncccc2c1.Cl.Cl"
20

====

test: AUC (0 to last) in CD Sprague-Dawley rat at 3 mg/kg, po by LC-MS/MS analysis
endpointName: AUC(0-t) (ng·h/mL)
Give bare numbers, in ng·h/mL.

CCCCc1cc(OC2CCN(CCCCNS(=O)(=O)CC)CC2)c2ncccc2c1.Cl.Cl : 62

Continue with the next molecule.
So what's the measured AUC(0-t) for this one? "CCCCc1cc(OC2CCN(CCCS(=O)(=O)CC)CC2)c2ncccc2c1.Cl.Cl"
568

====

assay: Drug level in CD Sprague-Dawley rat brain at 300 mg/kg, po measured after 30 mins by LC-MS/MS analysis; type: ADME, organism-based; conditions: read-out: Drug uptake
endpointName: concentration at 0.5 h (ng/g)
Answers are plain numbers, in ng/g.

Look up concentration at 0.5 h: "CCCCc1cc(OC2CCN(CCCCNS(=O)(=O)CC)CC2)c2ncccc2c1.Cl.Cl"
14500

====

assay: Blood clearance in CD Sprague-Dawley rat at 1 mg/kg, iv or 3 mg/kg, po by LC-MS/MS analysis; format: ADME, organism-based
endpointName: clearance (mL/min/kg)
Give bare numbers, in mL/min/kg.

Can you share its clearance? I mean this molecule: "CCCCc1cc(OC2CCN(CCCCNS(=O)(=O)CC)CC2)c2ncccc2c1.Cl.Cl"
38

====

assay: Elimination half life in Beagle dog at 0.5 mg/kg, iv administered via bolus dose or 1 mg/kg, po administered via gavage by LC-MS/MS analysis; format: ADME, organism-based, Canis lupus familiaris; settings: in vivo, read-out: beta t1/2 (converted)
endpointName: half-life (h)
Give bare numbers, in h.

Item "CCCCc1cc(OC2CCN(CCCCNS(=O)(=O)CC)CC2)c2ncccc2c1.Cl.Cl" has what recorded half-life?
3.8

====

Give concentration at 5 min for every item shown.
assay: Drug level in CD Sprague-Dawley rat brain at 1 mg/kg, iv administered via bolus dose measured after 5 mins by LC-MS/MS analysis; format: ADME, organism-based; details: read-out: Drug uptake
Show the value, then the unit it is measured in.

Check out these entries, answers already filled in.
CCCCc1cc(OC2CCN(CCCCNS(=O)(=O)CC)CC2)c2ncccc2c1.Cl.Cl : 26 ng/g
CCCCc1cc(OC2CCN(CCCS(=O)(=O)CC)CC2)c2ncccc2c1.Cl.Cl : 62 ng/g

Then there is this molecule:
Tell me the measured concentration at 5 min of "CCCCc1cc(OC2CCN(CCCS(=O)(=O)C(C)(C)C)CC2)c2ncccc2c1" , please.
133 ng/g
